Data origin: patent US20230416329A1

target: bovine trypsin (bovine, UniProt P00760 24-246); assay: trypsin inhibition, BApNA substrate
Sequence (P00760 24-246): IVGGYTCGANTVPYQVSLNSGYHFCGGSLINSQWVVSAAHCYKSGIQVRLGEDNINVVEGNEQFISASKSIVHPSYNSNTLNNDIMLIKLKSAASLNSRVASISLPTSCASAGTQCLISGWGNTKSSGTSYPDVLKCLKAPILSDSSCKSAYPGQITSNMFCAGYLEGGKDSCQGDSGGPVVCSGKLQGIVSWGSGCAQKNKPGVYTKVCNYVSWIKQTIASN
Bridge positions count the residues as written; N and C are the ends. Square brackets hold non-standard residues; d marks the D form. Ends that are not written are not given here. Nle = CCCC[C@H](N)C(=O)O
Parameter: log10 of IC50. Scope: all listed entries.
PROPERTY MEASURED: log10 of IC50 (log10 of the value in nM)

CGRITKSIPPICF (disulfide 1-12 (inferred)) [BT49]: 2.70
CGRHTKSIPPICF (disulfide 1-12 (inferred)) [BT56]: 2.04
CGRQTKSIPPICF (disulfide 1-12 (inferred)) [BT54]: 1.78
CGRATKSIPPICF (disulfide 1-12 (inferred)) [BT9]: 1.85
CGRNTKSIPPICF (disulfide 1-12 (inferred)) [BT55]: 2.48
CGRATKSLPPACF (disulfide 1-12 (inferred)) [BT14]: 3.22
CGRATKS[Nle]PPICF (disulfide 1-12 (inferred)) [BT28]: 2.46
CGSATKSIPPICFPD (disulfide 1-12 (inferred)) [BT6]: 2.46
CGRVTKSIPPICF (disulfide 1-12 (inferred)) [BT51]: 2.61
CGAKATKSIPPICFPD (disulfide 1-13 (inferred)) [BT3]: 2.83
CGRATKSIPPIAC (disulfide 1-13 (inferred)) [BT13]: 4.50
CGRLTKSIPPICF (disulfide 1-12 (inferred)) [BT48]: 2.26
CERATKSIPPICF (disulfide 1-12 (inferred)) [BT78]: 1.48
CGRYTKSIPPICF (disulfide 1-12 (inferred)) [BT53]: 2.08
CIRATKSIPPICF (disulfide 1-12 (inferred)) [BT73]: 2.08
CKRATKSIPPICF (disulfide 1-12 (inferred)) [BT77]: 1.60
CGRGTKSIPPICF (disulfide 1-12 (inferred)) [BT60]: 2.63
CGRATKSLPAICF (disulfide 1-12 (inferred)) [BT16]: 2.96
CGRAAKSIPPICF (disulfide 1-12 (inferred)) [BT26]: 3.40
RCTKSLPPQCS (disulfide 2-10 (inferred)) [BT65]: 2.79
CWTKSIPPKPC (disulfide 1-11 (inferred)) [BT36]: 3.67
CGRATKAIPPICF (disulfide 1-12 (inferred)) [BT27]: 2.45
CGRATKSIPPICFPD (disulfide 1-12 (inferred)) [BT5]: 2.20
CGAKGTKSIPPICFPD (disulfide 1-13 (inferred)) [BT2]: 3.48
RCTKSNPPQCQ (disulfide 2-10 (inferred)) [BT64]: 3.54
